Assay: enhancers of NFkB p65 translocation in HUVEC – imaging, IL-1B stimulus, high-content imaging, primary screen (AID 819);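 also: percent activation is computed from the nuclear over cytoplasmic p65 intensity ratio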
Details: HUVEC IL-1B NFkB p65 nuclear translocation imaging; at 2 µM; stronger effect = higher value
Out of some 94,000 compounds screened, about 280 (0.3%) were called active. Many of the other results were omitted from the sample, so actives are more common in it than they were.
Assign True to entries whose activation meets or exceeds 10%; assign False to the rest.

O=C(/C=C/c1ccccc1)N/C(=C/c1ccccc1)C(=O)Nc1ccccc1O
False
O=C(Nc1ccc(Cl)cc1)OCc1cc(-c2ccccc2)on1
True
Cc1ccc(OCC(=O)Nc2cccc3c2CCCC3)cc1C
True
Brc1cnc(N2CCCC2)nc1N1CCCCC1
True
c1ccc(-c2csc(N3CCc4ccccc4C3)n2)cc1
False

*Q* Kindly determine if activation recorded for "COC(=O)c1c(NC(=O)c2cccs2)sc2c1CCCC2" is above or exactly 10%.
*A* False

*Q* Same again, this time with "NS(=O)(=O)c1ccc(Nc2nc(-c3ccccc3)cs2)cc1"
*A* False

*Q* Same again, this time with "CC(=O)c1ccc(OCCN2CCOCC2)cc1"
*A* True

*Q* Same again, this time with CC(Oc1ccc(-c2ccccc2)c(F)c1)c1ccn(S(=O)(=O)c2cccc3ccccc23)n1 (centres undefined)
*A* False
